Biological target: C-C chemokine receptor type 8 (Homo sapiens)
Sequence (P51685 whole entry): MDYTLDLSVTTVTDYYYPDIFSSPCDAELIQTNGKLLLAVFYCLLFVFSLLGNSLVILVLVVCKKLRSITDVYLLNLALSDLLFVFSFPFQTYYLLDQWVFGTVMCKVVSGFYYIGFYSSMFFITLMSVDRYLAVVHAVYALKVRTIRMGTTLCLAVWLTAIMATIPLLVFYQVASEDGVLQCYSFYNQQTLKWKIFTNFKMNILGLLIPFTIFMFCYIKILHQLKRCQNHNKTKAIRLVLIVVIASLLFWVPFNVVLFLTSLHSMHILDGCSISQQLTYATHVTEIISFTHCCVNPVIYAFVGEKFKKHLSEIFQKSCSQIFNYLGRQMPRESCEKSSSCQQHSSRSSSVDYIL
Okay, here is how we bin by Ki: lower segment (below 0.004 µM), middle segment (0.004 µM to below 0.03 µM), upper segment (0.03 µM or more)

In [3]: df
Out[3]:
                     structure_smiles_string                           measured_target  discrete_label
 0  CCOC(=O)N1CCC(NS(=O)(=O)c2ccc(OCc3ccccc3)c3ccccc23)CC1  C-C chemokine receptor type 8 (Homo sapiens)   upper segment
 1  CC(=O)N1CCC(NS(=O)(=O)c2ccc(NC(=O)c3ccccc3C)c3ccccc23)CC1  C-C chemokine receptor type 8 (Homo sapiens)  middle segment
 2  Cc1ccccc1C(=O)Nc1ccc(S(=O)(=O)NC2CCN(C(=O)c3ccccc3)CC2)c2ccccc12  C-C chemokine receptor type 8 (Homo sapiens)   upper segment
 3  Cc1ccccc1C(=O)Nc1ccc(S(=O)(=O)NC2CCN(C(=O)c3ccc(N(C)C)cc3)CC2)c2ccccc12  C-C chemokine receptor type 8 (Homo sapiens)   upper segment
 4  CCOC(=O)N1CCC(NS(=O)(=O)c2ccc(C(=O)NC3CCCCC3)c3ccccc23)CC1  C-C chemokine receptor type 8 (Homo sapiens)  middle segment
 5  Cc1ccccc1C(=O)Nc1ccc(S(=O)(=O)NC2CCN(C(=O)N3CCCC3)CC2)c2ccccc12  C-C chemokine receptor type 8 (Homo sapiens)   lower segment
 6  COCC(=O)N1CCC(NS(=O)(=O)c2ccc(NC(=O)c3ccccc3C)c3ccccc23)CC1  C-C chemokine receptor type 8 (Homo sapiens)  middle segment
 7  CCCNC(=O)N1CCC(NS(=O)(=O)c2ccc(NC(=O)c3ccccc3C)c3ccccc23)CC1  C-C chemokine receptor type 8 (Homo sapiens)   upper segment
 8  Cc1ccccc1C(=O)Nc1ccc(S(=O)(=O)NC2CCN(C(=O)N3CCN(C)CC3)CC2)c2ccccc12  C-C chemokine receptor type 8 (Homo sapiens)  middle segment
 9  CCOC(=O)N1CCC(NS(=O)(=O)c2ccc(OC(=O)c3ccccc3)c3ccccc23)CC1  C-C chemokine receptor type 8 (Homo sapiens)  middle segment
10  CNC(=O)N1CCC(NS(=O)(=O)c2ccc(NC(=O)c3ccccc3C)c3ccccc23)CC1  C-C chemokine receptor type 8 (Homo sapiens)   lower segment
11  O=C(Nc1ccc(S(=O)(=O)N2CCOCC2)c2ccccc12)c1ccccc1  C-C chemokine receptor type 8 (Homo sapiens)   upper segment
12  CCC(=O)N1CCC(NS(=O)(=O)c2ccc(NC(=O)c3ccccc3C)c3ccccc23)CC1  C-C chemokine receptor type 8 (Homo sapiens)   lower segment
13  CCOC(=O)N1CCC(NS(=O)(=O)c2cccc3c(NC(=O)c4ccccc4)cccc23)CC1  C-C chemokine receptor type 8 (Homo sapiens)   lower segment
14  O=C(Nc1ccc(S(=O)(=O)N2CCCCC2)c2ccccc12)c1ccccc1  C-C chemokine receptor type 8 (Homo sapiens)   upper segment
15  CC(C)(C)OC(=O)N1CCC(NS(=O)(=O)c2ccc(NC(=O)c3ccccc3)c3ccccc23)CC1  C-C chemokine receptor type 8 (Homo sapiens)  middle segment
16  Cc1ccccc1C(=O)Nc1ccc(S(=O)(=O)NC2CCN(C(=O)Nc3ccccc3)CC2)c2ccccc12  C-C chemokine receptor type 8 (Homo sapiens)   upper segment
17  CN1CCN(S(=O)(=O)c2ccc(NC(=O)c3ccccc3)c3ccccc23)CC1  C-C chemokine receptor type 8 (Homo sapiens)   upper segment
18  CCOC(=O)N1CCC(NS(=O)(=O)c2ccc(NCCCc3ccccc3)c3ccccc23)CC1  C-C chemokine receptor type 8 (Homo sapiens)   upper segment
19  Cc1ccccc1C(=O)Nc1ccc(S(=O)(=O)NC2CCN(C(=O)N3CCC3)CC2)c2ccccc12  C-C chemokine receptor type 8 (Homo sapiens)   lower segment
20  CCOC(=O)N1CCC(NS(=O)(=O)c2ccc(C(=O)Nc3ccccc3C)c3ccccc23)CC1  C-C chemokine receptor type 8 (Homo sapiens)  middle segment
21  CCOC(=O)N1CCC(NS(=O)(=O)c2ccc(NC(=O)c3ccccc3C)c3ccccc23)CC1  C-C chemokine receptor type 8 (Homo sapiens)   lower segment
